Tested on: L. iners
Construct: DSM 13335
protocol details: organism not typed
Set-up: Microbial growth in liquid dilution assay, OD600 relative to DMSO control
settings: estimated IC50; read-out: L. iners, IC50 (µM) estimate
property name: IC50

QUERY: Give recorded IC50 with L. iners for the following compound: O=C(CC1CCN(CCc2ccccc2)CC1)Nc1cccc(-n2cccn2)c1 [c4e]
RESULT: > 30 µM

====

protocol details: in vitro
settings: human, hela cells, % viability
Could you mark each record y if its viability at 28.5 h, 10 µM falls strictly under 90%, and n if it equals or exceeds it?

Record excerpt, results attached:
Cc1nc2ccccc2c2c1C(=O)N(c1cccc(C(=O)OCC(=O)c3ccccc3Cl)c1)C2=O | n
Cc1ccc(S(=O)(=O)Nc2cccc(C(=O)O)c2)cc1 | y

QUERY: Check if viability at 28.5 h, 10 µM falls below 90% for O=C(Cc1ccccc1)Nc1ccccc1C(=O)NCc1cccnc1 .
RESULT: n

QUERY: Continue with Cc1cc(OCC(=O)N2CCNC(=O)C2)c2c(C)c(C)c(=O)oc2c1
RESULT: n

====

viability at 28.5 h, 10 µM values by entry
protocol details: in vitro
settings: human, hela cells, % viability
Write down the numeric answer in % and omit the unit.

The cases that follow already have their viability at 28.5 h, 10 µM on record.
Cn1cc(Nc2nc(-c3ccc4c(c3)CCCN4S(C)(=O)=O)cs2)cn1 | 85.7
Cc1c(OCc2ccccc2)ccc2c1OC1(CCN(C(=O)c3ccsc3)CC1)CC2=O | 109
O=S(=O)(Nc1nnn[nH]1)c1ccc(N2CCOCC2)nc1 | 99
O=C(CN1C(=O)[C@H]2CCCN2C(=O)c2ccccc21)N1CCCCC1 | 90.6
CC(NC(=O)C1(Cn2ccnc2)CC1)c1cccnc1 (stereo not shown) | 97.3

QUERY: Requested field: viability at 28.5 h, 10 µM. Item: CCN(CC)C(=O)Cn1nc2c(C)cc3ccccc3n2c1=O
RESULT: 84.1

QUERY: Also need N#Cc1ccc(N2C(=O)c3ccccc3S2(=O)=O)cc1 , thanks.
RESULT: 113

QUERY: Another compound: COc1ccccc1NC(=O)COc1cccc(Cl)c1Cl
RESULT: 106

QUERY: Further, for O=C(Nc1ccccc1)Nc1nc(=O)n(-c2ccccc2)s1 ?
RESULT: 93

QUERY: What would you report for CCOCCNC(=O)c1coc(COc2ccc3sc(C)nc3c2)n1 ?
RESULT: 109

====

protocol details: in vitro
settings: human, hela cells, % viability
property name: viability at 28.5 h, 10 µM (%)
Record the value in %, omitting the unit from your answer.

Worked set:
COc1cccc(CNCCO)c1OCc1ccccc1F [CBK266594C] | 104
COc1ccc(S(=O)(=O)Nc2c(C(=O)N3CCOCC3)sc3ncccc23)cc1OC | 108
CC(C)NC(=O)C1CN(Cc2ccccc2)CC12CCc1ccccc1C2NC(=O)CN (stereo not shown) | 79.4
Cc1cc(Cl)cc(Br)c1OCCNCCN(C)C [CBK267791G] | 102
COc1cncc(-c2cc(Nc3ccc(O)cc3)ncn2)c1 | 98

Turning to the following molecule.
QUERY: Need viability at 28.5 h, 10 µM of CCOC(=O)c1sc(-c2cccc(C)n2)nc1O , thanks.
RESULT: 84.5
